Hi there, I'd appreciate the recorded viscosity for every entry that follows.
Conditions: 358.15 K; 101.33 kPa; Liquid; Concentric cylinders viscometry
Give bare numbers, in mPa·s.

Hi there! I need viscosity for each item below, if you can.
1. CCCCCCCCc1cccc[n+]1CC.O=S(=O)([N-]S(=O)(=O)C(F)(F)F)C(F)(F)F
2. CCCc1cccc[n+]1CC.O=S(=O)([N-]S(=O)(=O)C(F)(F)F)C(F)(F)F

Reply:
15.44
12.3

Hi there! I need viscosity for each item below, if you can.
1. CCCCCc1cccc[n+]1CC.O=S(=O)([N-]S(=O)(=O)C(F)(F)F)C(F)(F)F
2. CCCCc1cccc[n+]1CC.O=S(=O)([N-]S(=O)(=O)C(F)(F)F)C(F)(F)F
3. CCCCCCCc1cccc[n+]1CC.O=S(=O)([N-]S(=O)(=O)C(F)(F)F)C(F)(F)F
4. CCCCCCc1cccc[n+]1CC.O=S(=O)([N-]S(=O)(=O)C(F)(F)F)C(F)(F)F

Reply:
[12.36, 12.39, 13.97, 13.04]

Ask: So what does the record say about viscosity for CCc1cccc[n+]1CC.O=S(=O)([N-]S(=O)(=O)C(F)(F)F)C(F)(F)F [1,2-diethylpyridin-1-ium bis((trifluoromethyl)sulfonyl)imide] ?
Reply: 10.52

----------
Hi there, I'd appreciate the recorded mass density for every entry that follows.
Settings: 323.15 K; 101.33 kPa; Liquid; Vibrating tube method
One number for each entry, in kg/m3.

Consider the worked cases shown below.
molecule: CCc1cccc[n+]1CC.O=S(=O)([N-]S(=O)(=O)C(F)(F)F)C(F)(F)F [1,2-diethylpyridin-1-ium bis((trifluoromethyl)sulfonyl)imide]
mass density, kg/m3: 1446.9

molecule: CCCCc1cccc[n+]1CC.O=S(=O)([N-]S(=O)(=O)C(F)(F)F)C(F)(F)F
mass density, kg/m3: 1386.4

molecule: CCCCCCCCc1cccc[n+]1CC.O=S(=O)([N-]S(=O)(=O)C(F)(F)F)C(F)(F)F
mass density, kg/m3: 1276.4

Hi there! I need mass density for each item below, if you can.
1. CCCCCCCc1cccc[n+]1CC.O=S(=O)([N-]S(=O)(=O)C(F)(F)F)C(F)(F)F
2. CCCCCc1cccc[n+]1CC.O=S(=O)([N-]S(=O)(=O)C(F)(F)F)C(F)(F)F
3. CCCc1cccc[n+]1CC.O=S(=O)([N-]S(=O)(=O)C(F)(F)F)C(F)(F)F
4. CCCCCCc1cccc[n+]1CC.O=S(=O)([N-]S(=O)(=O)C(F)(F)F)C(F)(F)F

Reply:
1: 1299.4; 2: 1349; 3: 1423.8; 4: 1322.5

----------
Hi there, I'd appreciate the recorded viscosity for every entry that follows.
Settings: 348.15 K; 101.33 kPa; Liquid; Concentric cylinders viscometry
Give bare numbers, in mPa·s.

Hi there! I need viscosity for each item below, if you can.
1. CCCCCCc1cccc[n+]1CC.O=S(=O)([N-]S(=O)(=O)C(F)(F)F)C(F)(F)F
2. CCCCCCCCc1cccc[n+]1CC.O=S(=O)([N-]S(=O)(=O)C(F)(F)F)C(F)(F)F
3. CCCCc1cccc[n+]1CC.O=S(=O)([N-]S(=O)(=O)C(F)(F)F)C(F)(F)F
4. CCc1cccc[n+]1CC.O=S(=O)([N-]S(=O)(=O)C(F)(F)F)C(F)(F)F [1,2-diethylpyridin-1-ium bis((trifluoromethyl)sulfonyl)imide]
5. CCCCCCCc1cccc[n+]1CC.O=S(=O)([N-]S(=O)(=O)C(F)(F)F)C(F)(F)F

Reply:
[16.98, 20.39, 16.04, 13.16, 18.28]

Hi there! I need viscosity for each item below, if you can.
1. CCCc1cccc[n+]1CC.O=S(=O)([N-]S(=O)(=O)C(F)(F)F)C(F)(F)F
2. CCCCCc1cccc[n+]1CC.O=S(=O)([N-]S(=O)(=O)C(F)(F)F)C(F)(F)F

Reply:
1. 15.82
2. 16.02
